These measurements were taken from the Human Domainome abundance scans (Beltran et al. 2025).

B1: Homeobox protein cut-like 1, residues 941 to 1008; numbered along this chain, P39880 (parent)
chain: QEVDTIELTRQVKEKLAKNGICQRIFGEKVLGLSQGSVSDMLSRPKPWSKLTQKGREPFIRMQLWLNG

variants of: B1; assay: abundance fitness (aPCA) (normalised: wild type 0, dead -1); higher = more abundant; growth selection in yeast, the domain comes from the species named; conditions: Homo sapiens
Please mark 1 if the recorded abundance fitness is equal to or greater than -0.1, and -1 if it falls below.

Recorded results for 8 variants are shown here.
construct_sequence="QEVDTIELTRQVKEKLAKNGICQRIFGEKVLGLSQLSVSDMLSRPKPWSKLTQKGREPFIRMQLWLNG [G36L]" cat=1
construct_sequence="QGVDTIELTRQVKEKLAKNGICQRIFGEKVLGLSQGSVSDMLSRPKPWSKLTQKGREPFIRMQLWLNG [E2G]" cat=1
construct_sequence="QEVDTIELTRQVKEKLAKNGICQRIFGEKVLGLSQGFVSDMLSRPKPWSKLTQKGREPFIRMQLWLNG [S37F]" cat=1
construct_sequence="QEVDTIELTRQVKNKLAKNGICQRIFGEKVLGLSQGSVSDMLSRPKPWSKLTQKGREPFIRMQLWLNG [E14N]" cat=1
construct_sequence="QEVDTIELTRQVKEKLAKNGICQRIFGEKVLGLSQGSVSDMLSRDKPWSKLTQKGREPFIRMQLWLNG [P45D]" cat=-1
construct_sequence="QEVDTIELTRQVKEKLAKNGICQRIFGEKVLGLSQGSVSDMLSPPKPWSKLTQKGREPFIRMQLWLNG [R44P]" cat=-1
construct_sequence="QPVDTIELTRQVKEKLAKNGICQRIFGEKVLGLSQGSVSDMLSRPKPWSKLTQKGREPFIRMQLWLNG [E2P]" cat=-1
construct_sequence="QEVDTIELTRQVKVKLAKNGICQRIFGEKVLGLSQGSVSDMLSRPKPWSKLTQKGREPFIRMQLWLNG [E14V]" cat=-1

**Query** Say whether QEVDTIELTRQVKEKLAKNGICQRIFWEKVLGLSQGSVSDMLSRPKPWSKLTQKGREPFIRMQLWLNG [G27W] shows abundance fitness of -0.1 or more.
**Result** -1

**Query** Tell me whether abundance fitness is at least -0.1 here: QEVDTIELTRQVKEKLAKNGICQRVFGEKVLGLSQGSVSDMLSRPKPWSKLTQKGREPFIRMQLWLNG [I25V]
**Result** 1

**Query** Could you tell me if the measured abundance fitness of VEVDTIELTRQVKEKLAKNGICQRIFGEKVLGLSQGSVSDMLSRPKPWSKLTQKGREPFIRMQLWLNG [Q1V] reaches -0.1 or more?
**Result** -1
